# TARGET: 5-HT2C receptor (Homo sapiens, UniProt P28335)
# Construct: host or cells: HEK-293
# Sequence (P28335 33-458): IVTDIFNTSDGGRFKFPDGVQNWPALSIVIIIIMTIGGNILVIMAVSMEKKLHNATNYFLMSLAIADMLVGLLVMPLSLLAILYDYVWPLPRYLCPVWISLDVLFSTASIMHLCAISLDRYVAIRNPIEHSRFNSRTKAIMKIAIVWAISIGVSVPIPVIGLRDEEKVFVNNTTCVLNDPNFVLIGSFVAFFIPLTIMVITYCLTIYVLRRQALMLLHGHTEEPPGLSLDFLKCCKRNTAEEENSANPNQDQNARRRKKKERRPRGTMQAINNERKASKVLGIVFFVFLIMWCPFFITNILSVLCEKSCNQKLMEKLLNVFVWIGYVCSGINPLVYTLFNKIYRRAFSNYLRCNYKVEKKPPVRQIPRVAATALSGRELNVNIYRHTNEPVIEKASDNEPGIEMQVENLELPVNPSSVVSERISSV
# ASSAY REMARKS: Eurofins Cerep competition binding assay at 5-HT2C receptor
# DETAILS: test ligand 10 μM; [125I](±)DOI 0.1 nM; recombinant receptor, HEK-293 membranes
Entries whose HT2C, percent of control-specific binding is below 20% take 1 (yes); entries at or above 20% take 0 (no).

[[record]]
molecule = "c1cc2c(cc1CC1=NCCO1)OCO2 [C(III)]"
group_label = "1 (yes)"

[[record]]
molecule = "CC(CN1CCCC1)c1ccc2c(c1)OCO2 (racemic) [Bx(II)]"
group_label = "0 (no)"

[[record]]
molecule = "CC(C(=O)N(C)Cc1ccccc1)c1ccc2c(c1)OCO2 (racemic) [Ax(V)]"
group_label = "1 (yes)"

[[record]]
molecule = "CC(C(=O)N1CCCC1)c1ccc2c(c1)OCO2 (racemic) [Ax(II)]"
group_label = "1 (yes)"


Given the entry CC(CN(C)Cc1ccccc1)c1ccc2c(c1)OCO2 (racemic) [Bx(V)] , would its reported HT2C, percent of control-specific binding be below 20%?
0 (no)

* * *

# TARGET: D3 receptor (Homo sapiens, UniProt P35462)
# Construct: host or cells: CHO
# Sequence (P35462 whole entry): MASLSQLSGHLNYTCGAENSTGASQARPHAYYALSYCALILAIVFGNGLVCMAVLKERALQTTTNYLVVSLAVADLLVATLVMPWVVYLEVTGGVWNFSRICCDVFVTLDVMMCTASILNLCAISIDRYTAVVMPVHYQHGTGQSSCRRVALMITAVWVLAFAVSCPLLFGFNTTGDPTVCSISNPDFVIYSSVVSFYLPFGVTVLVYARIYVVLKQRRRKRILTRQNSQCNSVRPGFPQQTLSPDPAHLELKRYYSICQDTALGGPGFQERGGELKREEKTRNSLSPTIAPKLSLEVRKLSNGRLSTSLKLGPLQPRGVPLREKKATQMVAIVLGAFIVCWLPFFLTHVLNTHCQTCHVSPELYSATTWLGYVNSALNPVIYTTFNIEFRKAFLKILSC
# ASSAY REMARKS: Eurofins Cerep competition binding assay at D3 receptor
# DETAILS: test ligand 10 μM; [3H]methylspiperone […]; recombinant receptor, CHO membranes
EXPERIMENTAL ENDPOINT: D3, percent of control-specific binding
Please give the number followed by its unit.

Here's what some known entries look like.
[[record]]
compound = "CC(C(=O)N1CCCC1)c1ccc2c(c1)OCO2 (racemic)"
reading = "0%"

[[record]]
compound = "CC(CN1CCCC1)c1ccc2c(c1)OCO2 (racemic)"
reading = "14%"

[[record]]
compound = "CC(CN(C)Cc1ccccc1)c1ccc2c(c1)OCO2 (racemic)"
reading = "19%"


Using the record for `c1cc2c(cc1CC1=NCCO1)OCO2` , report its D3, percent of control-specific binding.
10%

What value of D3, percent of control-specific binding has been reported for the following compound? CC(C(=O)N(C)Cc1ccccc1)c1ccc2c(c1)OCO2 (racemic)
8%

* * *

// D2, percent of control-specific binding lookup, one value per entry
# TARGET: D2 receptor (Homo sapiens, UniProt P14416)
# Construct: host or cells: HEK-293
# Sequence (P14416 1-414 isoform P14416-2): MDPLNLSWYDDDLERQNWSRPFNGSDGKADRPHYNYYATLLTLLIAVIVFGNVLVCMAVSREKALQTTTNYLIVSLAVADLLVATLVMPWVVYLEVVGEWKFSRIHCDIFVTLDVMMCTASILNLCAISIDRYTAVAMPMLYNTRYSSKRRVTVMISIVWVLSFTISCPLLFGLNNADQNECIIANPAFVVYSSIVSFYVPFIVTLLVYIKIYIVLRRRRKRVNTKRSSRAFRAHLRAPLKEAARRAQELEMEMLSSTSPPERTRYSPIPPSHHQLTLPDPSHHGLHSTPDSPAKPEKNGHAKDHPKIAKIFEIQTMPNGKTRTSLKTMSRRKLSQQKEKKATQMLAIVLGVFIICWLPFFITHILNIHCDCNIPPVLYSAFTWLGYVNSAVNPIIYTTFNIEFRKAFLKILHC
# ASSAY REMARKS: Eurofins Cerep competition binding assay at D2 receptor
# DETAILS: test ligand 10 μM; [3H]methylspiperone 0.3 nM; recombinant receptor, HEK-293 membranes
A number alone suffices; assume %.

Observe how each entry below is paired with its result.
[[record]]
compound = "CC(CN(C)Cc1ccccc1)c1ccc2c(c1)OCO2 (racemic) [Bx(V)]"
experimental_endpoint = "D2, percent of control-specific binding"
quantity_unit = "%"
reading = 12

[[record]]
compound = "CC(C(=O)N(C)Cc1ccccc1)c1ccc2c(c1)OCO2 (racemic) [Ax(V)]"
experimental_endpoint = "D2, percent of control-specific binding"
quantity_unit = "%"
reading = 0

[[record]]
compound = "CNC(C)Cc1ccc2c(c1)OCO2 (centres unmarked) [MDMA, reference compound]"
experimental_endpoint = "D2, percent of control-specific binding"
quantity_unit = "%"
reading = "−10"

[[record]]
compound = "CC(CN1CCCC1)c1ccc2c(c1)OCO2 (racemic) [Bx(II)]"
experimental_endpoint = "D2, percent of control-specific binding"
quantity_unit = "%"
reading = 6


// returns reported D2, percent of control-specific binding for input COc1cc(CCN)c(OC)cc1Br [2C-B, reference compound]
42

* * *

Recorded HT2A, percent of control-specific binding, one value per entry.
# TARGET: 5-HT2A receptor (Homo sapiens)
# Construct: host or cells: HEK-293
# Sequence (P28223 whole entry): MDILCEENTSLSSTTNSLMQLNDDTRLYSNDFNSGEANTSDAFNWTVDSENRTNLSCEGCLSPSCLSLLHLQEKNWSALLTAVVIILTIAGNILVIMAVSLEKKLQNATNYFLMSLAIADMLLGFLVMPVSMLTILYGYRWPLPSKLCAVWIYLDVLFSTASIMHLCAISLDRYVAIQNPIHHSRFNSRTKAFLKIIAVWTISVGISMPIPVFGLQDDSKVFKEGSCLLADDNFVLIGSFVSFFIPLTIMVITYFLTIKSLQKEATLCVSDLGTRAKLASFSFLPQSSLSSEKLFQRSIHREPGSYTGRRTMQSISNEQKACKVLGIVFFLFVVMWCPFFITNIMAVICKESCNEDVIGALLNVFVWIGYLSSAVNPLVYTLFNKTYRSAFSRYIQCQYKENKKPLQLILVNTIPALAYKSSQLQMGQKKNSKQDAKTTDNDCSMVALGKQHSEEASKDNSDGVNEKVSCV
# Type: binding
# DETAILS: test ligand 10 μM; [125I](±)DOI 0.1 nM; recombinant receptor, HEK-293 membranes
Give just the numeric value; % need not be written.

Recorded HT2A, percent of control-specific binding, per entry:
[[record]]
molecule = "CC(CN(C)Cc1ccccc1)c1ccc2c(c1)OCO2 (racemic)"
quantity_unit = "%"
reading = 13

[[record]]
molecule = "c1cc2c(cc1CC1=NCCO1)OCO2"
quantity_unit = "%"
reading = 0

[[record]]
molecule = "CC(CN1CCCC1)c1ccc2c(c1)OCO2 (racemic)"
quantity_unit = "%"
reading = 10

[[record]]
molecule = "CC(C(=O)N(C)Cc1ccccc1)c1ccc2c(c1)OCO2 (racemic)"
quantity_unit = "%"
reading = 2


Consider the record given below.
Any idea what HT2A, percent of control-specific binding was measured for CC(C(=O)N1CCCC1)c1ccc2c(c1)OCO2 (racemic) ?
0

* * *

# TARGET: serotonin transporter (SERT) (Homo sapiens, UniProt P31645)
# Construct: host or cells: CHO
# Sequence (P31645 whole entry): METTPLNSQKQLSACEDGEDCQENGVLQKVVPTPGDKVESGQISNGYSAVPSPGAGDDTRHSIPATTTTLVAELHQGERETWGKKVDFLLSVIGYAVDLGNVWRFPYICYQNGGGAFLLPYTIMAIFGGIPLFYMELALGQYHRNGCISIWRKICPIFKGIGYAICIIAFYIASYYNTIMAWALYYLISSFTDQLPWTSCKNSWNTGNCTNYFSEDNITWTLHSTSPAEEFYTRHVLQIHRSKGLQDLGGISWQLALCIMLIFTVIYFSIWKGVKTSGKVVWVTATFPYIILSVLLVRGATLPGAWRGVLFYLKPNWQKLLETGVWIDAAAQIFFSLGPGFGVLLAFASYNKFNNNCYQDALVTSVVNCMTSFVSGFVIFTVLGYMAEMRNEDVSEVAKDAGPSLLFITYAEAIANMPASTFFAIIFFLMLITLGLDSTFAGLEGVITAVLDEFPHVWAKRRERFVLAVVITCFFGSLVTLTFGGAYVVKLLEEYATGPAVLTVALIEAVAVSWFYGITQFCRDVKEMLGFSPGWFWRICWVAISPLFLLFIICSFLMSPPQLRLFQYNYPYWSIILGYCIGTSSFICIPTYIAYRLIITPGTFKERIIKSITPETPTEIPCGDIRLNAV
# Assay type: binding
Labelling field: enter YES if recorded SERT, percent of control-specific binding is less than 2%. Enter NO if it equals or exceeds that cut-off.

Solved cases below.
[[record]]
compound = "c1cc2c(cc1CC1=NCCO1)OCO2"
group_label = "YES"

[[record]]
compound = "CC(CN1CCCC1)c1ccc2c(c1)OCO2 (racemic)"
group_label = "NO"

[[record]]
compound = "CN(C)CCCN1c2ccccc2CCc2ccccc21 [Imipramine, imipramine, reference compound]"
group_label = "NO"


Dear reviewer, please state whether CC(CN(C)Cc1ccccc1)c1ccc2c(c1)OCO2 (racemic) has SERT, percent of control-specific binding strictly beneath 2%.
NO

Find out if reported SERT, percent of control-specific binding for CC(C(=O)N(C)Cc1ccccc1)c1ccc2c(c1)OCO2 (racemic) is less than 2%
YES

* * *

# TARGET: alpha2A receptor (Homo sapiens)
# Construct: host or cells: CHO
# Sequence (P08913 whole entry): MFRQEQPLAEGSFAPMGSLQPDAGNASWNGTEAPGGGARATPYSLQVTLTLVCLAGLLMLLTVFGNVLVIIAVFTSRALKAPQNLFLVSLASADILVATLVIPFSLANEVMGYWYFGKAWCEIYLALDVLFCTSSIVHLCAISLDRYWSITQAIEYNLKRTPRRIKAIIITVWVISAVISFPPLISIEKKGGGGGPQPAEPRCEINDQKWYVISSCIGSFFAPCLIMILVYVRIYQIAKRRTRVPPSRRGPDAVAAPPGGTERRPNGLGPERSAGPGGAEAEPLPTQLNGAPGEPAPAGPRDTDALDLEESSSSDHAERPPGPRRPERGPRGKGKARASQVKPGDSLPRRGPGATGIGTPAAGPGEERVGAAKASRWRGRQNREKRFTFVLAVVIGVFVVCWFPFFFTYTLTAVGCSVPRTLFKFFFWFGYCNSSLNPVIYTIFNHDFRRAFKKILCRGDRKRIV
# ASSAY REMARKS: Eurofins Cerep competition binding assay at alpha2A receptor
# DETAILS: test ligand 10 μM; [3H]RX 821002 1 nM; recombinant receptor, CHO membranes; read-out: α-2A, percent of control-specific binding
Reported inhibition at 10 µM values are given for each entry in this list.
Report the figure in % without appending any unit label.

As a guide, the following entries are already answered.
[[record]]
compound = "CC(CN1CCCC1)c1ccc2c(c1)OCO2 (racemic) [Bx(II)]"
experimental_endpoint = "inhibition at 10 µM"
reading = 19

[[record]]
compound = "CC(C(=O)N1CCCC1)c1ccc2c(c1)OCO2 (racemic) [Ax(II)]"
experimental_endpoint = "inhibition at 10 µM"
reading = 0

[[record]]
compound = "CC(CN(C)Cc1ccccc1)c1ccc2c(c1)OCO2 (racemic) [Bx(V)]"
experimental_endpoint = "inhibition at 10 µM"
reading = 24

[[record]]
compound = "CC(C(=O)N(C)Cc1ccccc1)c1ccc2c(c1)OCO2 (racemic) [Ax(V)]"
experimental_endpoint = "inhibition at 10 µM"
reading = 0


inhibition at 10 µM lookup needed for c1cc2c(cc1CC1=NCCO1)OCO2 [C(III)] , thanks.
19

* * *

# TARGET: MT1 receptor (Homo sapiens, UniProt P48039)
# Construct: host or cells: CHO
# Sequence (P48039 whole entry): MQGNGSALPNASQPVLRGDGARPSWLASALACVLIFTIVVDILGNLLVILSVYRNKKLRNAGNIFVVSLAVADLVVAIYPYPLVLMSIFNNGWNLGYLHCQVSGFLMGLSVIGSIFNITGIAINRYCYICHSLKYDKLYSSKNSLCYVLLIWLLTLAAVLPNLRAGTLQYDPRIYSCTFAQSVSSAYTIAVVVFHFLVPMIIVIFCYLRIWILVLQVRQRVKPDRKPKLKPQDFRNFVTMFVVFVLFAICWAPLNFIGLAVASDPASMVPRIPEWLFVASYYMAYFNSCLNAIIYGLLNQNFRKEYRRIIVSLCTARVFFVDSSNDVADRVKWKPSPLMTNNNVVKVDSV
# ASSAY REMARKS: Eurofins Cerep competition binding assay at MT1 receptor
# DETAILS: test ligand 10 μM; [125I]2-iodomelatonin 0.01 nM; recombinant receptor, CHO membranes
Measured MT1, percent of control-specific binding of individual entries
API: value field is a number in %; no unit string.

Observe how each entry below is paired with its result.
[[record]]
compound = "CC(C(=O)N1CCCC1)c1ccc2c(c1)OCO2 (racemic) [Ax(II)]"
target = "MT1 receptor (Homo sapiens, UniProt P48039)"
quantity_unit = "%"
reading = 5

[[record]]
compound = "c1cc2c(cc1CC1=NCCO1)OCO2 [C(III)]"
target = "MT1 receptor (Homo sapiens, UniProt P48039)"
quantity_unit = "%"
reading = 12

[[record]]
compound = "CC(CN(C)Cc1ccccc1)c1ccc2c(c1)OCO2 (racemic) [Bx(V)]"
target = "MT1 receptor (Homo sapiens, UniProt P48039)"
quantity_unit = "%"
reading = 9


I'd like to know its MT1, percent of control-specific binding. The compound in question is CC(C(=O)N(C)Cc1ccccc1)c1ccc2c(c1)OCO2 (racemic) [Ax(V)]
55

Look up MT1, percent of control-specific binding for this compound: CC(CN1CCCC1)c1ccc2c(c1)OCO2 (racemic) [Bx(II)]
0

* * *

# TARGET: 5-HT2B receptor (Homo sapiens)
# Construct: host or cells: CHO
# Sequence (P41595 whole entry): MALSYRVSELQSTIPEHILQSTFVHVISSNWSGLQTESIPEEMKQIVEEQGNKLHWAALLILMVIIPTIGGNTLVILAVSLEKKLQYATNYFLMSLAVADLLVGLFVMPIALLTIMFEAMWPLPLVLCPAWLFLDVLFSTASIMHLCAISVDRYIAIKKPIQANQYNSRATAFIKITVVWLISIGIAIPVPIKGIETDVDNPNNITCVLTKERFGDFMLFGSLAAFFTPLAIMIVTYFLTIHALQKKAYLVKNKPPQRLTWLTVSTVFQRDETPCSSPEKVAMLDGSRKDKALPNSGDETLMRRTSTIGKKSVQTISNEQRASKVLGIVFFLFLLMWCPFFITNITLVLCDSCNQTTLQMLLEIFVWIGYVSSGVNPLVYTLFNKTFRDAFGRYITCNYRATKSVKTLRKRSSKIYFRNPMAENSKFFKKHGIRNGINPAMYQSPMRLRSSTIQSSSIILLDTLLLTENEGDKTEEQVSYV
# ASSAY REMARKS: Eurofins Cerep competition binding assay at 5-HT2B receptor
# DETAILS: test ligand 10 μM; [3H]mesulergine 2 nM; recombinant receptor, CHO membranes
Item-by-item account of HT2B, percent of control-specific binding
Record the result as number plus unit.

Example molecules with recorded HT2B, percent of control-specific binding:
[[record]]
molecule = "CC(CN(C)Cc1ccccc1)c1ccc2c(c1)OCO2 (racemic) [Bx(V)]"
target = "5-HT2B receptor (Homo sapiens)"
reading = "41%"

[[record]]
molecule = "CC(C(=O)N(C)Cc1ccccc1)c1ccc2c(c1)OCO2 (racemic) [Ax(V)]"
target = "5-HT2B receptor (Homo sapiens)"
reading = "30%"

[[record]]
molecule = "CC(CN1CCCC1)c1ccc2c(c1)OCO2 (racemic) [Bx(II)]"
target = "5-HT2B receptor (Homo sapiens)"
reading = "38%"

[[record]]
molecule = "c1cc2c(cc1CC1=NCCO1)OCO2 [C(III)]"
target = "5-HT2B receptor (Homo sapiens)"
reading = "19%"


Attention now shifts to the item below.
Using the record for CC(C(=O)N1CCCC1)c1ccc2c(c1)OCO2 (racemic) [Ax(II)] , report its HT2B, percent of control-specific binding.
5%
